# experimentalProtocol: Plasma pharmacokinetics of DEBIO1143 in patients (LC-MS/MS)
# Format: in vivo, human
# statedConditions: human, plasma, oral, 10 mg, day 1, n=1
# Method: Pharmacokinetic samples were taken from all patients on day 1 (predose, 0.5, 1, 2, 3, 4, 6, 8, 12, 18 h postdose) and on day 5 (predose, 0.5, 1, 2, 3, 4, 6, 8 h postdose) of the first cycle. […] C max and t max were determined by direct assessment of the observed concentration versus time curves. […] For the detection of cIAP-1 in paraffin-embedded human tissue, a validated immunohistochemical (IHC) assay was used. […] Plasma biomarkers were measured through commercial ELISAs. […]
propertyMeasured: Cmax (ng/mL)
Give the number; ng/mL is assumed, so skip it.

Query: Find the measured Cmax of CN[C@@H](C)C(=O)N[C@H]1CN(C(=O)CC(C)C)CC[C@H]2CC[C@@H](C(=O)NC(c3ccccc3)c3ccccc3)N2C1=O [DEBIO1143] and report it.
Response: 37.4

###

# experimentalProtocol: Plasma pharmacokinetics of DEBIO1143 in patients (LC-MS/MS)
# Format: in vivo, human
# statedConditions: human, plasma, oral, 600 mg, day 1, n=3, mean (SD)
propertyMeasured: Cmax (ng/mL)
Reply numerically in ng/mL, unit not repeated.

Query: Give the value of Cmax reported for the following: CN[C@@H](C)C(=O)N[C@H]1CN(C(=O)CC(C)C)CC[C@H]2CC[C@@H](C(=O)NC(c3ccccc3)c3ccccc3)N2C1=O
Response: 5780

###

# experimentalProtocol: Plasma pharmacokinetics of DEBIO1143 in patients (LC-MS/MS)
# Type: in vivo, human
# statedConditions: human, plasma, oral, 260 mg, day 5, n=3, mean (SD)
propertyMeasured: AUC(0-t)
The reply must contain the numeric value and, after it, the unit.

Query: Fill in reported AUC(0-t) for this entry: CN[C@@H](C)C(=O)N[C@H]1CN(C(=O)CC(C)C)CC[C@H]2CC[C@@H](C(=O)NC(c3ccccc3)c3ccccc3)N2C1=O [DEBIO1143]
Response: 10600 ng·h/mL

###

# experimentalProtocol: Plasma pharmacokinetics of DEBIO1143 in patients (LC-MS/MS)
# Type: in vivo, human
# statedConditions: human, plasma, oral, 600 mg, day 5, n=3, mean (SD)
propertyMeasured: AUC(0-inf) (ng·h/mL)
API: value field is a number in ng·h/mL; no unit string.

Query: Quickly give me recorded AUC(0-inf) for CN[C@@H](C)C(=O)N[C@H]1CN(C(=O)CC(C)C)CC[C@H]2CC[C@@H](C(=O)NC(c3ccccc3)c3ccccc3)N2C1=O [DEBIO1143]
Response: 25000

###

# experimentalProtocol: Plasma pharmacokinetics of DEBIO1143 in patients (LC-MS/MS)
# Format: in vivo, human
# statedConditions: human, plasma, oral, 180 mg, day 5, n=7, mean (SD); read-out: T 1/2 (converted)
propertyMeasured: half-life (h)
Record the value in h, omitting the unit from your answer.

Query: Give recorded half-life. CN[C@@H](C)C(=O)N[C@H]1CN(C(=O)CC(C)C)CC[C@H]2CC[C@@H](C(=O)NC(c3ccccc3)c3ccccc3)N2C1=O
Response: 4.14

###

# experimentalProtocol: Plasma pharmacokinetics of DEBIO1143 in patients (LC-MS/MS)
# Format: in vivo, human
# statedConditions: human, plasma, oral, 40 mg, day 1, n=1
propertyMeasured: AUC(0-t) (ng·h/mL)
Write it as a number; the unit ng·h/mL goes unstated.

Query: Please supply the value of reported AUC(0-t) for the item CN[C@@H](C)C(=O)N[C@H]1CN(C(=O)CC(C)C)CC[C@H]2CC[C@@H](C(=O)NC(c3ccccc3)c3ccccc3)N2C1=O
Response: 2140
